Assay: Multiple rising dose plasma PK, OZ439 oral dispersion once daily for 3 days
Format: in vivo, human
Details: human, plasma, po, 200 mg, Cmax, 200 mg once a day for 3 days, oral dispersion, day 3; geometric mean (CV%)
QUANTITY_KIND: Cmax (ng/mL)
// units = ng/mL; emit number, no label

In: Returns the measured Cmax for the input molecule. Input: c1cc([C@H]2CC[C@]3(CC2)OO[C@]2(O3)C3CC4CC(C3)CC2C4)ccc1OCCN1CCOCC1
Out: 342

----------
Assay: Single rising dose plasma PK, OZ439 capsule, fasted healthy subjects
Format: in vivo, human
Details: human, plasma, oral, 1200 mg
QUANTITY_KIND: AUC(0-t) (ng·h/mL)
// units = ng·h/mL; emit number, no label

In: Returns the measured AUC(0-t) for the input compound. Input: c1cc([C@H]2CC[C@]3(CC2)OO[C@]2(O3)C3CC4CC(C3)CC2C4)ccc1OCCN1CCOCC1
Out: 6530

----------
Assay: Single rising dose plasma PK, OZ439 capsule, fasted healthy subjects
Type: in vivo, human
Details: human, plasma, oral, 1200 mg
QUANTITY_KIND: Cmax (ng/mL)
// units = ng/mL; emit number, no label

In: Returns the measured Cmax for the input molecule. Input: c1cc([C@H]2CC[C@]3(CC2)OO[C@]2(O3)C3CC4CC(C3)CC2C4)ccc1OCCN1CCOCC1 [OZ439]
Out: 701
